test system: Nucleic Acid; experiment: Binding affinity to calf thymus DNA assessed as change in melting temperature at 10 uM relative to control; assay type: nucleic-acid assay; conditions: Bos taurus
MEASURED ATTRIBUTE: ΔTm (°C)

ENTRY SMILES | ΔTm [°C]
CCN(CC)CCNc1ccc2ncn3c4cc(O)ccc4c(=O)c1c23 | 5

1: Cc1nc2ccc(NCCN(C)C)c3c(=O)c4cc(O)ccc4n1c23
2: COc1cccc2c1C(=O)c1c(O)c3c(c(O)c1C2=O)C[C@@](O)(C(=O)CO)C[C@@H]3O[C@H]1C[C@H](N)[C@H](O)[C@H](C)O1
3: CCN(CC)CCNc1ccc2ncn3c4c(OC)cccc4c(=O)c1c23
4: CCN(CC)CCNc1ccc2ncn3c4c(OC)ccc(OC)c4c(=O)c1c23
// ranking: key=ΔTm, reverse=True Put the labels in the requested order and write them down.
2, 1, 3, 4

====

biological target: Ribosyldihydronicotinamide dehydrogenase [quinone] (Homo sapiens); assay: Inhibition of human recombinant NQO2 assessed as reduction of DCPIP by spectrophotometry
Sequence (P16083 whole entry): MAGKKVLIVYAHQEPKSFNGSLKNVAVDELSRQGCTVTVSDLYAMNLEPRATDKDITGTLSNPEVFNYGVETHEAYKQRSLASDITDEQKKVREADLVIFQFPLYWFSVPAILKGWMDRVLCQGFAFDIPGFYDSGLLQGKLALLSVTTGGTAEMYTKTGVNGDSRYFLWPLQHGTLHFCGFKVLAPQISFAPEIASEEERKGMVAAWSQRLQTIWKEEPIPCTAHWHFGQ
pIC50: −log10 of the molar value.
MEASURED ATTRIBUTE: pIC50

Consider the worked cases shown below.
ENTRY SMILES | pIC50
CCN(CC)CCNc1ccc2ncn3c4ccc(O)cc4c(=O)c1c23 | 6.83
CN(C)CCCNc1ccc2ncn3c4ccccc4c(=O)c1c23 | 6.76
CCN(CC)CCNc1ccc2ncn3c4c(OC)cccc4c(=O)c1c23 | 7.00
CCN(CC)CCCNc1ccc2ncn3c4ccc(O)cc4c(=O)c1c23 | 6.22
Cc1nc2ccc(NCCN(C)C)c3c(=O)c4cc(O)ccc4n1c23 | 7.30
CCN(CC)CCNc1ccc2ncn3c4cc(O)ccc4c(=O)c1c23 | 6.02

P: CCN(CC)CCNc1ccc2nc(C)n3c4ccc(O)cc4c(=O)c1c23
Q: CCN(CC)CCNc1ccc2ncn3c4ccc(OC)cc4c(=O)c1c23
R: CCN(CC)CCNc1ccc2nc(C)n3c4ccc(OC)cc4c(=O)c1c23
S: CCN(CC)CCNc1ccc2ncn3c4c(OC)ccc(O)c4c(=O)c1c23
Form: Sort by [pIC50] Order [ ascending ] Answer format: list of labels, ordered as asked.
Q, S, P, R
(Q: 6.00, S: 7.51, P: 7.80, R: 8.05)

====

test system: Nucleic Acid; test: Binding affinity to calf thymus DNA assessed as change in melting temperature at 10 uM relative to control; assay type: nucleic-acid assay; conditions: Bos taurus
MEASURED ATTRIBUTE: ΔTm (°C)

ENTRY SMILES | MEASURED ATTRIBUTE | RECORDED RESULT
CCN(CC)CCNc1ccc2nc(C)n3c4ccc(OC)cc4c(=O)c1c23 | ΔTm | 8.6
CCN(CC)CCNc1ccc2ncn3c4c(OC)ccc(O)c4c(=O)c1c23 | ΔTm | 3.1
Cc1nc2ccc(NCCN(C)C)c3c(=O)c4ccccc4n1c23 | ΔTm | 7.1
CN(C)CCNc1ccc2ncn3c4ccc(O)cc4c(=O)c1c23 | ΔTm | 5.1

I: CN(C)CCNc1ccc2ncn3c4ccccc4c(=O)c1c23
II: CCN(CC)CCCNc1ccc2ncn3c4ccc(O)cc4c(=O)c1c23
Would you mind telling me which has the lower recorded ΔTm between I and II ? Respond using the label that marks the chosen record.
I
(I: 5.6 °C, II: 8 °C)
